emission maximum overview
- test_description: solvent given as SMILES
- condition_details: in Cc1ccccc1
Use nm as the unit, but write only the number.

Worked cases, emission maximum given:
Cc1ccc(-n2c(-c3cccc4cc[n-]c34)[nH+]c3c4ccccc4c4ccccc4c32)cc1 = 566
CC1(C)c2cc(C#N)ccc2-c2ccc(N3c4ccccc4Oc4ccccc43)cc21 = 487
Cc1ccc2c(c1)C1(c3ccccc3-c3ccccc31)c1cc(C)ccc1N2c1ccc2c(c1)Sc1ccccc1P2(=S)c1ccccc1 (stereo not drawn) = 454.61

Query block: Consider the molecule "Cc1cc(C)c(B(c2ccc(-c3ccc4ccc5cccc6ccc3c4c56)cc2)c2c(C)cc(C)cc2C)c(C)c1" and give its measured emission maximum.
Result block: 431

Query block: Consider the molecule O=P1(c2ccccc2)C(c2ccc(N(c3ccccc3)c3ccccc3)cc2)=Cc2ccccc21 (stereo not drawn) and give its measured emission maximum.
Result block: 490

Query block: Consider the molecule "O=P1(c2ccccc2)c2cc(N3c4ccccc4Sc4ccccc43)ccc2-c2ccc(N3c4ccccc4Sc4ccccc43)cc21" and give its measured emission maximum.
Result block: 557

Query block: Consider the molecule "FC(F)(F)c1ccc(/C=C/c2nc(/C=C/c3ccc(N(c4ccccc4)c4ccccc4)cc3)cc(/C=C/c3ccc(N(c4ccccc4)c4ccccc4)cc3)n2)cc1" and give its measured emission maximum.
Result block: 486

Query block: Consider the molecule "COC(=O)/C(C#N)=c1\s/c(=c2/s/c(=C(/C#N)C(=O)OC)c3cc(-c4ccc5c(c4)C(C)(C)c4ccccc4-5)sc23)c2sc(-c3ccc4c(c3)C(C)(C)c3ccccc3-4)cc12" and give its measured emission maximum.
Result block: 682

Query block: Consider the molecule "c1ccc(-c2nc(-c3ccccc3)nc(-c3cc(-n4c5ccccc5c5ccccc54)cc(-n4c5ccccc5c5ccccc54)c3)n2)cc1" and give its measured emission maximum.
Result block: 475.1

Query block: Consider the molecule "N#Cc1cc(C#N)c(-c2cc(-n3c4ccccc4c4ccccc43)cc(-n3c4ccccc4c4ccccc43)c2)cc1-c1cc(-n2c3ccccc3c3ccccc32)cc(-n2c3ccccc3c3ccccc32)c1" and give its measured emission maximum.
Result block: 372

Query block: Consider the molecule "CC1(C)c2ccccc2-n2c(-c3ccc(-n4c5ccc(-n6c7ccccc7c7ccccc76)cc5c5cc(-n6c7ccccc7c7ccccc76)ccc54)cc3)nc3cccc1c32" and give its measured emission maximum.
Result block: 401

Query block: Consider the molecule "c1ccc2c(c1)c1ccccc1n2-c1ccc(-c2cc3ccc(-c4ccc5cc(-c6ccc(-n7c8ccccc8c8ccccc87)cc6)oc5c4)cc3o2)cc1" and give its measured emission maximum.
Result block: 407

Query block: Consider the molecule "CCC1(CC)c2cc(B(c3c(C)cc(C)cc3C)c3c(C)cc(C)cc3C)ccc2-c2c1c1c(c3c2C(CC)(CC)c2cc(B(c4c(C)cc(C)cc4C)c4c(C)cc(C)cc4C)ccc2-3)C(CC)(CC)c2cc(B(c3c(C)cc(C)cc3C)c3c(C)cc(C)cc3C)ccc2-1" and give its measured emission maximum.
Result block: 385
